Recorded % A (azithromycin dihydrate, form A, of recovered azithromycin) by entry
Test: Stability of non-dihydrate azithromycin in suspension (POS formulation II or bulk drug in water); SS-NMR quantification of form A
Type: physicochemical
Settings: Bulk Drug in 18 mls water, 5° C., Day 1
Measured Property: % A (azithromycin dihydrate, form A, of recovered azithromycin) (%)

{"Compound": "CC[C@H]1OC(=O)[C@H](C)[C@@H](O[C@H]2C[C@@](C)(OC)[C@@H](O)[C@H](C)O2)[C@H](C)[C@@H](O[C@@H]2O[C@H](C)C[C@H](N(C)C)[C@H]2O)[C@](C)(O)C[C@@H](C)CN(C)[C@H](C)[C@@H](O)[C@]1(C)O [Form G, azithromycin sesquihydrate]", "Reported Measurement": 1}
{"Compound": "CCC1OC(=O)C(C)C(O[C@H]2C[C@@](C)(OC)[C@@H](O)C(C)O2)C(C)[C@@H](OC2OC(C)CC(N(C)C)[C@H]2O)[C@@](C)(O)C[C@@H](C)CN(C)[C@H](C)[C@@H](O)[C@]1(C)O (stereo partly shown) [Form M]", "Reported Measurement": 0}
{"Compound": "CCC1OC(=O)C(C)C(O[C@H]2C[C@@](C)(OC)[C@@H](O)C(C)O2)C(C)[C@@H](OC2OC(C)CC(N(C)C)[C@H]2O)[C@@](C)(O)C[C@@H](C)CN(C)[C@H](C)[C@@H](O)[C@]1(C)O (stereo partly shown) [Form J]", "Reported Measurement": 0}
{"Compound": "CCC1OC(=O)C(C)C(O[C@H]2C[C@@](C)(OC)[C@@H](O)C(C)O2)C(C)[C@@H](OC2OC(C)CC(N(C)C)[C@H]2O)[C@@](C)(O)C[C@@H](C)CN(C)[C@H](C)[C@@H](O)[C@]1(C)O (stereo partly shown) [Form F]", "Reported Measurement": 0}

* * *

Experiment: Stability of non-dihydrate azithromycin in suspension (POS formulation II or bulk drug in water); SS-NMR quantification of form A
Format: physicochemical
Details: Formulation II constituted with 18 mls water, 5° C., Day 10
Measured Property: % A (azithromycin dihydrate, form A, of recovered azithromycin) (%)

{"Compound": "CCC1OC(=O)C(C)C(O[C@H]2C[C@@](C)(OC)[C@@H](O)C(C)O2)C(C)[C@@H](OC2OC(C)CC(N(C)C)[C@H]2O)[C@@](C)(O)C[C@@H](C)CN(C)[C@H](C)[C@@H](O)[C@]1(C)O (stereo partly shown) [Form F]", "Reported Measurement": 27}
{"Compound": "CC[C@H]1OC(=O)[C@H](C)[C@@H](O[C@H]2C[C@@](C)(OC)[C@@H](O)[C@H](C)O2)[C@H](C)[C@@H](O[C@@H]2O[C@H](C)C[C@H](N(C)C)[C@H]2O)[C@](C)(O)C[C@@H](C)CN(C)[C@H](C)[C@@H](O)[C@]1(C)O [Form G, azithromycin sesquihydrate]", "Reported Measurement": 78}
{"Compound": "CCC1OC(=O)C(C)C(O[C@H]2C[C@@](C)(OC)[C@@H](O)C(C)O2)C(C)[C@@H](OC2OC(C)CC(N(C)C)[C@H]2O)[C@@](C)(O)C[C@@H](C)CN(C)[C@H](C)[C@@H](O)[C@]1(C)O (stereo partly shown) [Form M]", "Reported Measurement": 40}
{"Compound": "CCC1OC(=O)C(C)C(O[C@H]2C[C@@](C)(OC)[C@@H](O)C(C)O2)C(C)[C@@H](OC2OC(C)CC(N(C)C)[C@H]2O)[C@@](C)(O)C[C@@H](C)CN(C)[C@H](C)[C@@H](O)[C@]1(C)O (stereo partly shown) [Form J]", "Reported Measurement": 0}
